Sourced from PubChem BioAssay (Tox21)

# Test: qHTS RealTime-Glo MT Cell Viability Assay in HEK293 cells - 40 hour (AID 1224874); note: % is set by controls: 0 for no effect and ±100 for the full control effect; nearly all actives have a fitted effect of over 50% in size
# Settings: RealTime-Glo luminescence; active compounds read low
# Description: U.S. Tox21 Program National Center for Advancing Translational Sciences [NCATS] NIH Chemical Genomics Center [NCGC] U.S. Environmental Protection Agency [EPA] National Institutes of Environmental Health Sciences [NIEHS] National Toxicology Program [NTP] U.S. Food and Drug Administration [FDA] Tox21 Assay Overview: Measure of cell viability is critical in the cell-base assay. Analysis of cell viability is necessary for the characterization of cell responses to cytotoxic drugs and environmental stress. […]
Inconclusive results are not listed.
Reported metric: max response (%)

Compound	Value observed
C1CCC(SSC2CCCCC2)CC1	-7.62
COc1ccc(-c2coc3cc(O)ccc3c2=O)cc1	-10.2
C#C[C@]1(O)CC[C@H]2[C@@H]3[C@H](C)CC4=C(CCC(=O)C4)[C@H]3CC[C@@]21C	-25.5
OC1CCC(C2CCCCC2)CC1 (centres undefined)	-6.69
OCC(F)(F)F	19.1
CCCCCCC1CCCC(=O)O1 (centres undefined)	3.13
CCOC(=O)NNc1ccc(N(CC)CC(C)O)nn1 (centres undefined)	7.18
O=S(=O)(O)c1ccccc1/C=C/c1ccc(-c2ccc(/C=C/c3ccccc3S(=O)(=O)O)cc2)cc1	3.02
O=C(O)c1cccc(C(F)(F)F)c1	-0.78
COc1cc2nc(N3CCN(C(=O)c4ccco4)CC3)nc(N)c2cc1OC	-18.8
CC(C)(C)CC(C)(C)c1ccc(Nc2ccc(C(C)(C)CC(C)(C)C)cc2)cc1	9
CN(C)Cc1cc(C(C)(C)C)c(O)c(C(C)(C)C)c1	-1.74
CC/C=C\CCCCCO	9.87
OC1CCCc2ccccc21 (centres undefined)	-0.638
CCO[Si](OCC)(OCC)OCC	3.28
CCCCN(CCCC)CC(O)c1cc(Cl)cc2c1-c1ccc(Cl)cc1/C2=C/c1ccc(Cl)cc1 (centres undefined)	-17.2
CC(C)OC(=O)C(O)(CC(=O)O)CC(=O)O	1.68
CC(C)CCCCCOC(=O)CCS	0.648
Cc1ccc(C(=O)O)cc1	10
O=C(Nc1ccc2c(O)c(N=Nc3ccc(N=Nc4ccc(S(=O)(=O)O)cc4)cc3)c(S(=O)(=O)O)cc2c1)c1ccccc1	-19.7
O=[N+]([O-])c1ccc(F)c(Cl)c1	14.6
Cc1cc(=O)oc2cc(O)cc(O)c12	-8.17
CCCCOC(=O)CO	-0.491
Cc1cc(-n2nc3ccc(Cl)cc3n2)c(O)c(C(C)(C)C)c1	-5.47
